The reported measurements were obtained from ChEMBL document CHEMBL1147675.

PROTOCOL: physchem
CONDITION NOTES: PBS, pH 7.4
Description: Solubility in PBS at pH 7.4
MEASURE NAME: solubility (µM)
# unit: µM | format: bare number

Task: Please supply the value of reported solubility for the item CC[C@H](C)[C@H](NC(=O)OCc1ccccc1)C(=O)N[C@@H](CCC(=O)NC(C)(C)CC)C(=O)N[C@@H](C)C(=O)N[C@H](/C=C/S(C)(=O)=O)CC(C)C
Output: 20

Task: Please supply the value of reported solubility for the item Cc1ccc(S(=O)(=O)N[C@@H](CC(=O)NCC(C)(C)C)C(=O)N[C@@H](C)C(=O)NC(C)(C)C(=O)c2nnc(-c3ccccc3)o2)cc1
Output: 249
